The measured values listed here are drawn from PubChem BioAssay (NCI).

System: HOP-92 NSCLC
Experiment: NCI-60 one-dose screen, 48 h
Details: 10 µM unless noted
This is part of a sample that, as a whole, favours compounds with a hit. Of some 83,000 tested, about 20% had one in any assay. The source made the active and inactive calls. The calls were made as follows: active = growth percent below 10; inactive = the rest.
Pick from 1 for active, -1 for inactive when you respond.

Q) Could you please tell me the result logged for COC(=O)[C@@H]1CC[C@]2(C)[C@H](CC[C@@H]3O[C@@]32C)[C@@]1(C)CC(=O)c1ccoc1 in this assay?
A) -1

Q) Could you please tell me the result logged for O=C(/C=C/c1cccc(Br)c1)c1ccccc1 in this assay?
A) -1

Q) Could you please tell me the result logged for O=C(CCN1CCOCC1)Nc1ccc(Cn2nnc3c2C(=O)c2nnn(Cc4ccc(NC(=O)CCN5CCOCC5)cc4)c2C3=O)cc1 in this assay?
A) 1

Q) Could you please tell me the result logged for CCN(CC)CC(C)(C)C(=O)/C=C/c1ccccc1 in this assay?
A) -1

Q) Could you please tell me the result logged for COc1ccc(OCC(=O)Nc2ccc(-c3nc4ccccc4s3)cc2C)cc1 in this assay?
A) -1

* * *

System: IGROV1 ovarian
Test: NCI-60 one-dose screen, 48 h (100 = growth as untreated, 0 = no growth, -100 = all killed)
Details: 10 µM unless noted
Compounds without any hit were thinned out: in the full panel of roughly 83,000, 20% have a hit.
So I've got a bunch of compounds here, and I need their growth values.
Return type: number; implicit unit %.

Q) Please look at COc1ccccc1-c1ccc2c(N)c(C(=O)c3ccc4c(c3)OCO4)sc2n1 and tell me its recorded growth on IGROV1 ovarian.
A) 78.1

Q) Please look at Cc1ccn2c(-c3csc(Nc4cccc(O)c4)n3)c(C)nc2c1 and tell me its recorded growth on IGROV1 ovarian.
A) 14.1

Q) Please look at CCCC(=O)Oc1ccc(/C(=C(/CC)Cc2ccccc2)c2ccc(OCCN3CCCC3)cc2)cc1 and tell me its recorded growth on IGROV1 ovarian.
A) 74

Q) Please look at COc1ccc2nc3cc(Cl)ccc3c(N3CCN(c4nccc(NCc5ccccc5)n4)CC3)c2c1 and tell me its recorded growth on IGROV1 ovarian.
A) 92

Q) Please look at COc1ccc(C2Nc3ccccc3-n3cccc32)cc1 (stereo not given) and tell me its recorded growth on IGROV1 ovarian.
A) 71.3

* * *

System: HS 578T breast
Assay: NCI-60 one-dose screen, 48 h (100 = growth as untreated, 0 = no growth, -100 = all killed)
Settings: 10 µM unless noted
This is part of a sample that, as a whole, favours compounds with a hit. Of some 83,000 tested, about 20% had one in any assay.
So I've got a bunch of compounds here, and I need their growth values.
Return type: number; implicit unit %.

Q) Check the records and state growth for CCCCN(CCCC)Cc1c(C)[nH]c2cc(OC)ccc2c1=O
A) 103

Q) Check the records and state growth for COc1ccc(C(=O)/C=C/c2c[n+](=O)c3ccc(F)cc3n2[O-])cc1
A) 102

Q) Check the records and state growth for COc1ccc(Cl)cc1Nc1nc(C(F)(F)F)ccc1C(=O)N/N=C/c1cccnc1
A) 59.6

Q) Check the records and state growth for COc1cc(C#N)cc(OC)c1OCCN(CCOc1c(OC)cc(C#N)cc1OC)S(=O)(=O)c1ccc(C)cc1
A) 99

Q) Check the records and state growth for COc1ccc(-c2cc(NC(=O)Nc3ccc(O)cc3)no2)cc1
A) 89.3

Q) Check the records and state growth for c1ccc(-c2nc(N3CCOCC3)c3c4c(sc3n2)CCCCC4)nc1
A) 65

Q) Check the records and state growth for O=C1c2cccnc2C(=O)c2c1c(C(=O)OCCN1CCCCC1)c1ccccn21
A) -0.578

Q) Check the records and state growth for CC/C=C\C[C@H](O)C/C=C1/C(=O)C=C[C@@H]1C/C=C\CCCC(=O)OC(C)C
A) 53.9

Q) Check the records and state growth for Cc1cc(N/N=C/c2nc(-c3ccc(Cl)cc3)oc2C)c2cc(Br)ccc2n1
A) 78.6

Q) Check the records and state growth for NS(=O)(=O)c1ccc(-n2ncc3c(=O)[nH]c(CN4CCN(c5cc6c(cc5F)c(=O)c(C(=O)O)cn6C5CC5)CC4)nc32)cc1
A) 97.8

Q) Check the records and state growth for NC(CC(=O)O)C(=O)OCc1ccccc1 (stereo not given)
A) 101

Q) Check the records and state growth for CCOC(=O)/C=C/C(=O)[C@H](CC(C)C)NC(=O)[C@H](Cc1ccccc1)NC(=O)OCc1ccccc1
A) 93.4

Q) Check the records and state growth for COC1C/C(=N\O)C2OC(c3ccccc3)OCC2O1 (stereo not given)
A) 106

Q) Check the records and state growth for S=c1[nH]nc(CSc2ncnc3c2c(-c2ccccc2)cn3-c2ccc(Cl)cc2)o1
A) 94.5

Q) Check the records and state growth for COc1ccccc1N1CCN(CCn2c(=O)c3c(c4ccccc4n3C)n(C)c2=O)CC1
A) 98.5

Q) Check the records and state growth for CC(=O)Nc1ccc2c(c1)c(NC(C)=O)nn2C(=O)Nc1ccc(Cc2ccccc2)cc1
A) 56.9

Q) Check the records and state growth for CC(C)(C)n1cc(-c2ccnc(NCCCNS(=O)(=O)c3cccc4ccccc34)c2)c(-c2cccc(O)c2)n1
A) 36.6

Q) Check the records and state growth for Cc1noc(C)c1-c1cc(O)cc(C(O)c2ccccc2)c1 (stereo not given)
A) 33.7

Q) Check the records and state growth for O=S(=O)(Nc1ccc(F)c(Cl)c1)c1ccc(-c2cnc(C3CC3)o2)cc1
A) 11.3

Q) Check the records and state growth for COc1ccc2nc3cc(Cl)ccc3c(N3CCN(c4nccc(Nc5ccccc5)n4)CC3)c2c1
A) 88.1

* * *

So I've got a bunch of compounds here, and I need their growth values.
System: U251 CNS
Assay: NCI-60 one-dose screen, 48 h (100 = growth as untreated, 0 = no growth, -100 = all killed)
Conditions: 10 µM unless noted
About 83,000 compounds went through this panel and 20% of them were active in at least one assay; those are over-represented in the sample as a whole.
Return type: number; implicit unit %.

Q) Check the records and state growth for COc1cc(OC)c(/C=C/S(=O)(=O)Cc2cnc(OC)c(N)c2)c(OC)c1
A) 10.5

Q) Check the records and state growth for CCN(CC)CCCNc1cccc2c(SCc3ccccc3)ccnc12
A) 48.6

Q) Check the records and state growth for COc1ccc(-c2cc(/C=C3\C(=O)Nc4ccc(Cl)cc43)[nH]n2)cc1
A) 34.2

Q) Check the records and state growth for O=c1c2c3c(sc2n2c(CCl)nnc2n1Cc1ccccc1)CCCC3
A) -99.2

Q) Check the records and state growth for O=C(NCc1cccc(C(F)(F)F)c1)[C@H](CCC(=O)N1CCN(C2CCCCC2)CC1)N1C(=O)[C@@H](N2C(=O)OC[C@@H]2c2ccccc2)[C@H]1/C(Cl)=C/c1ccccc1
A) 28.1

Q) Check the records and state growth for CC/C=C\C[C@H](O)C/C=C1/C(=O)C=C[C@@H]1C/C=C\CCCC(=O)NC(C)C
A) 2.26

Q) Check the records and state growth for CNCCCn1c2c(c3ccc([N+](=O)[O-])cc3c1=O)C(=O)c1cc(OC)cnc1-2
A) -61.1

Q) Check the records and state growth for CCCCCCCCCC(=O)Oc1ccc(/C(=C(/C)Cc2cccc(OC)c2)c2ccc(OCCN(C)C)cc2)cc1
A) 110

Q) Check the records and state growth for CCOc1ccc(Nc2nc(-c3c(C)nc4ncccn34)cs2)cc1
A) 4.82

* * *

Tested on: SK-OV-3 ovarian
Assay: NCI-60 one-dose screen, 48 h (100 = growth as untreated, 0 = no growth, -100 = all killed)
Settings: 10 µM unless noted
About 83,000 compounds went through this panel and 20% of them were active in at least one assay; those are over-represented in the sample as a whole.
measurementKind: growth (%)
Return type: number; implicit unit %.

Q) Check the records and state growth for COc1ccc(-c2cc(/C=C3\C(=O)Nc4ccc(Cl)cc43)[nH]n2)cc1
A) 60

Q) Check the records and state growth for O=C1/C(=C/c2ccc(F)cc2)CN(C(=O)CCN2CCC(=NO)CC2)C/C1=C\c1ccc(F)cc1
A) -0.984

Q) Check the records and state growth for CCN(CC)Cc1cc(Nc2c3ccccc3nc3cc(Cl)ccc23)ccc1O
A) -2.76

Q) Check the records and state growth for CCOC(=O)CC(=O)c1c(C)cc(C)cc1C
A) 105

Q) Check the records and state growth for CCCCCCCCOC(=O)CC[C@@H](C)[C@H]1CC[C@H]2[C@@H]3[C@H](OC(=O)CCN)C[C@@H]4C[C@H](OC(=O)CCN)CC[C@]4(C)[C@H]3C[C@H](OC(=O)CCN)[C@]12C
A) 90.9

Q) Check the records and state growth for COc1ccc(C(=O)/C=C/c2c[n+](=O)c3ccc(F)cc3n2[O-])cc1
A) 106

Q) Check the records and state growth for N#Cc1c2c(nc3n[nH]c(N)c13)CCCC2
A) 116

Q) Check the records and state growth for COc1ccccc1/C=C(/C(=O)c1ccccc1)c1ccccc1
A) 103

Q) Check the records and state growth for CCOC(=O)CC(C)=N
A) 111

Q) Check the records and state growth for O=C1C[C@H](N2C(=O)c3ccccc3S2(=O)=O)C2CO[C@@H]1O2
A) 98.5

Q) Check the records and state growth for O=C1CC(c2nc3ccccc3[nH]2)CN1C1CCCCC1 (stereo not drawn)
A) 101

Q) Check the records and state growth for Nc1cc2nc3ccccc3sc-2cc1=O
A) 90.8

Q) Check the records and state growth for O=S(=O)(NCCCNc1cc(-c2cn(-c3ccccc3)nc2-c2ccccc2)ccn1)c1ccc(C(F)(F)F)cc1
A) 68.9

Q) Check the records and state growth for CC(=O)OCC(=O)C1CCC=CC1OC(C)=O (stereo not drawn)
A) 87.9

Q) Check the records and state growth for CC[C@H](Nc1cc(C)nc(N)n1)c1nc2cccc(NCc3ccc(C(=O)NO)cc3)c2c(=O)n1-c1ccccc1
A) 29.8

Q) Check the records and state growth for CC(C)[C@H]1COC(=O)N1[C@@H]1C(=O)N([C@@H](CCC(=O)N2CCN(C3CCCC3)CC2)C(=O)N[C@@H]2CCCc3ccccc32)[C@@H]1/C=C/c1cccc(Br)c1
A) 52.7

Q) Check the records and state growth for C=C1CCC2C3(C)COC(c4ccc(SC)cc4)OC3CCC2(C)C1C/C=C1/C(=O)OCC1O (stereo not drawn)
A) 96.3

Q) Check the records and state growth for COc1cccc(-c2nc3sccn3c2-c2ccnc(NCCCNS(=O)(=O)c3ccc(Cl)cc3)c2)c1
A) 75.3

Q) Check the records and state growth for COc1ccc(-n2cc(-c3ccccc3)c3c(SCC(=O)N/N=C/c4ccc([N+](=O)[O-])cc4)ncnc32)cc1
A) 109

Q) Check the records and state growth for CC(=O)N1CC(Nc2ccc(OC(F)(F)F)cc2)=CC1=O
A) 31.3

Q) Check the records and state growth for Cc1ccc(-c2nc(/C=N/Nc3cc(C)nc4ccc(Br)cc34)c(C)o2)cc1
A) 105

Q) Check the records and state growth for COCCOC(=O)C1=C(C)NC(=S)NC1c1ccc2c(c1)OCO2 (stereo not drawn)
A) 103

Q) Check the records and state growth for Cc1ccc(NC(=O)c2sc3nc4c(cc3c2N)C(=O)CCC4)cc1C
A) 4.9

Q) Check the records and state growth for CC#Cc1nc2ccccc2c(=O)[nH]1
A) 112

Q) Check the records and state growth for CCN(CC)CC(C)Nc1ccc([N+](=O)[O-])c2sc3ccccc3c(=O)c12 (stereo not drawn)
A) 33.8

Q) Check the records and state growth for COc1cc(C#N)cc(OC)c1OCCN(CCOc1c(OC)cc(C#N)cc1OC)S(=O)(=O)c1ccc(C)cc1
A) 119

Q) Check the records and state growth for COc1cc2c(c(OC)c1OC)-c1ccc(N=NC(N)=S)c(=O)cc1[C@@H](NC(C)=O)CC2
A) 12.1

Q) Check the records and state growth for CN1CCN(c2ccc3nc(-c4ccc5nc(-c6ccc(OCCC(C)(C)C)cc6)[nH]c5c4)[nH]c3c2)CC1
A) 88.8

Q) Check the records and state growth for COc1ccc(-c2cc(-c3cccnc3)nc3sc4c(=O)n(-c5ccc(C)cc5)nnc4c23)cc1OC
A) 95

Q) Check the records and state growth for Clc1cccc(Nc2nc(Nc3cnc4ccccc4c3)c3[nH]cnc3n2)c1
A) 71.2

Q) Check the records and state growth for COC1/C=C\OC2(C)Oc3c(C)c(O)c4c(O)c(c(CN(C)CCO)c(O)c4c3C2=O)NC(=O)/C(C)=C\C=C/C(C)C(O)C(C)C(O)C(C)C(OC(C)=O)C1C (stereo not drawn)
A) 96.6

Q) Check the records and state growth for CCOC(=O)N1CCN(c2nc(Nc3cc(C)[nH]n3)c3ccccc3n2)CC1
A) 47.8

Q) Check the records and state growth for COc1c2ccccc2c(OC)c2[nH]c(=O)ccc12
A) 92.6

Q) Check the records and state growth for Cn1cc(-c2nc(-c3c[nH]c4ccccc34)cs2)c2cccnc21
A) 38.7

Q) Check the records and state growth for O=[N+]([O-])c1cccc(-c2nc3sccn3c2-c2ccnc(NCCCNS(=O)(=O)c3ccc(Br)cc3)n2)c1
A) 92.5

Q) Check the records and state growth for Nc1cccc(-c2nc3sccn3c2-c2ccnc(NCCCNS(=O)(=O)c3ccc(C(F)(F)F)cc3)n2)c1
A) 23.8

Q) Check the records and state growth for c1ccc2c(Nc3cccc4ccccc34)cccc2c1
A) 59.5

Q) Check the records and state growth for C[C@H](CCC(=O)O)[C@H]1CC[C@H]2[C@@H]3CC[C@@H]4/C(=C\c5ccco5)C(=O)/C(=C\c5ccco5)C[C@]4(C)[C@H]3CC[C@]12C
A) 121
